Protocol summary: Trypanosoma cruzi growth suppression in host cells – NIH3T3 host cells, beta-gal luminescence, confirmation (AID 2044);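 also: intracellular parasites grown in NIH/3T3 mouse fibroblasts as host cells; luminescent beta-galactosidase reporter signal from transgenic T. cruzi replicating inside host cells; inhibitors lower the luminescence signal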
Assay type: functional, cell-based
Activity calls are given as the source filed them.
Quick list: EC50 per entry.

Molecule: COc1ccc(-c2cc3c(=O)n(CC(=O)NCCCN4CCC(N5CCCCC5)CC4)nc(C)n3n2)cc1
EC50: 3090 nM (active)
--
Molecule: COC(=O)c1ccc(-c2sc3nc(N4CCOCC4)c4c(c3c2N)CCCC4)o1
EC50: 2630 nM (active)
--
Molecule: COc1ccccc1CCNC1CCC(C(C)(C)C)CC1 (stereo not given)
EC50: 1370 nM (active)
--
Molecule: CN(C)c1oc(-c2ccc(OCc3ccc(Cl)cc3)cc2)nc1C#N
EC50: 8310 nM (active)
--
Molecule: CN(C)CCNc1c2c(c(C#N)c3nc4ccccc4n13)CCCC2
EC50: < 100 nM (active)
--
Molecule: Cc1n[nH]c(-c2ccc(OCc3cnn(-c4ccccc4)c3)cc2O)c1Oc1ccc(Cl)cc1
EC50: 2430 nM (active)
--
Molecule: Cc1cccc(NS(=O)(=O)c2cc(C(=O)N3CCc4ccccc4C3)ccc2Cl)c1C
EC50: 2180 nM (active)
--
Molecule: Cc1nc2ccc(NC(=O)c3ccc([N+](=O)[O-])cc3[N+](=O)[O-])cc2s1
EC50: 654 nM (active)
--
Molecule: CCCC(=O)NC(c1ccc(Cl)cc1)c1ccc2cccnc2c1O (stereo not given)
EC50: 226 nM (active)
--
Molecule: CCCOc1ccc(OCCOCCN2CCc3ccccc3C2)cc1
EC50: 205 nM (active)

====

Quick list: AC50 per entry.
Protocol summary: non-specific 3'UTR reporter inhibition in Clone20-Shn3RL – cell-based, Renilla luciferase, cherry-picked, counter-screen for Shn3 inhibitor project, dose response (AID 624133)
Format: functional
Active and inactive are the calls of the source.

Molecule: O=C(Nc1ccc(Cl)c(Cl)c1)Nc1ccc(N2CCCC2)c(S(=O)(=O)Nc2ccccc2Cl)c1
AC50: 11.4 µM (active)
--
Molecule: CC[C@@H](C)[C@H](NC(=O)OC(C)(C)C)c1nnc(S(=O)(=O)Cc2cc(C)ccc2C)o1
AC50: 15.4 µM (active)
--
Molecule: CC(=O)N1CCN(C(=O)CCc2cc(C(C)(C)C)c(O)c(C(C)(C)C)c2)CC1
AC50: 14.5 µM (active)
--
Molecule: COc1ccc(OC)c(/C=C/C(=O)N2C(=O)c3cccc(N)c3C2=O)c1
AC50: 26.6 µM (active)
--
Molecule: CC1C(=O)N(Cc2cn(CCC3OCCCO3)nn2)CCS(=O)(=O)N1Cc1ccc(-c2ccc(Cl)c(Cl)c2)cc1 (stereo unspecified)
AC50: 2.7 µM (active)
--
Molecule: C[C@H](NC(=O)c1ncn2c1c(O)nc1ccc(Br)cc12)c1ccccc1
AC50: 16.2 µM (active)

====

System name: Replicative DNA helicase DnaB (Mycobacterium tuberculosis, UniProt P9WMR3)
Protocol summary: DnaB intein splicing inhibitors, dose response, biochemical, cell-free fluorescence (AID 449749)
Format: functional
The source made the active and inactive calls.
Classes used: active, inactive

Compound: CCOc1cc(/C=C2\C(=N)N3N=C(N4CCCCC4)SC3=NC2=O)ccc1OC(=O)c1ccco1
Assigned label: inactive

Compound: CCCc1n[nH]c2c1C(c1ccc(OC(=O)c3ccco3)cc1)C(C#N)=C(N)O2 (centres undefined)
Assigned label: active

Compound: CCN(CC)c1ccc(/C=C2\C(=O)N(c3nnc(C)c(O)n3)N=C2C)cc1
Assigned label: active

Compound: CCOC(=O)/C(C#N)=C\c1ccc(O)c(OC)c1
Assigned label: active

Compound: N#CC(C#N)=C(C#N)c1ccc(Nc2ccccc2)cc1
Assigned label: inactive

Compound: O=C(CCCN1C(=O)/C(=C\c2cccs2)SC1=S)Nc1ccc(O)cc1
Assigned label: active

Compound: O=C(NC1CCCC1)C(c1ccc(F)cc1)N(Cc1ccc(Cl)cc1)C(=O)CCl (centres undefined)
Assigned label: active

Compound: CCc1ccc(NC(=O)CSc2ccc(-c3sc(C)nc3C)nn2)cc1
Assigned label: active

Compound: O=c1[nH]cc(/N=C/c2cc(Cl)cc(Cl)c2O)c(=O)[nH]1
Assigned label: active
